- Assayed System: UDP-3-O-acyl-N-acetylglucosamine deacetylase (Pseudomonas aeruginosa)
- Sequence (B5ATN6 whole entry): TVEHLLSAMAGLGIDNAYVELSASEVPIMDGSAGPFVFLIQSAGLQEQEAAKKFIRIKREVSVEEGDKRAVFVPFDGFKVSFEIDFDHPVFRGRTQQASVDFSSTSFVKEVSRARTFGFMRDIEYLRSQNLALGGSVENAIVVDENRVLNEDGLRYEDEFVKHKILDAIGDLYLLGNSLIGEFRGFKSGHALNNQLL
- Test: Inhibition of recombinant Pseudomonas aeruginosa LpxC expressed in Escherichia coli
Task for the reader: assign each of the following compounds its reported IC50.
Form entry: value (nM) — number only.

Asked: Which IC50 value is on record for `CC(C)(N)[C@H](NC(=O)c1ccc(C#CC#C[C@@H](O)CO)cc1)C(=O)NO` ?
Given back: 12

Asked: Can you share its IC50? I mean this compound: `CC(C)(N)[C@H](NC(=O)c1ccc(C#CC#C[C@H](O)CO)cc1)C(=O)NO`
Given back: 19

Asked: Query (compound): `CC(C)(N)[C@H](NC(=O)c1ccc(C#CC#CC2CC2)cc1)C(=O)NO` ; field requested: IC50
Given back: 0.62

----------
- Tested on: Pseudomonas aeruginosa
- Test: Antibacterial activity against Pseudomonas aeruginosa clinical isolate assessed as bacterial growth inhibition by microdilution assay
- Assay type: functional
Result Type: MIC (µg/mL)
All answers are understood in µg/mL, so give the number only.

Asked: What value of measured MIC is listed for `CC(C)(N)[C@H](NC(=O)c1ccc(C#CC#C[C@H](O)CO)cc1)C(=O)NO` ?
Given back: 3.5

Asked: Need MIC of `COC1([C@H](NC(=O)c2ccc(C#CC#CCCO)cc2)C(=O)NO)CS(=O)(=O)C1` , thanks.
Given back: 2.3

Asked: Using the record for `CC(C)(N)[C@H](NC(=O)c1ccc(C#CC#CC2CC2)cc1)C(=O)NO` , report its MIC.
Given back: 0.16

Asked: Given the entry `CC(C)(N)[C@H](NC(=O)c1ccc(C#CC#C[C@@H](O)CO)cc1)C(=O)NO` , report its measured MIC.
Given back: 8.8

Origin of the recorded values: ChEMBL document CHEMBL5360564
